Test: Solubility of tadalafil API in various solvents
Assay type: physicochemical
Details: organic solvent or mixture, thermodynamic from solid; Dichloromethane; 25° C. and 60° C.
RECORDED_METRIC: solubility

Query string: What value of measured solubility is listed for CN1CC(=O)N2[C@H](c3ccc4c(c3)OCO4)c3[nH]c4ccccc4c3C[C@@H]2C1=O ?
Result string: < 10.8 mg/mL

* * *

Test: Solubility of tadalafil API in various solvents
Assay type: physicochemical
Conditions: organic solvent or mixture, thermodynamic from solid; Anhydrous ethanol; 25° C. and 60° C.
RECORDED_METRIC: solubility

Query string: What value of measured solubility is listed for CN1CC(=O)N2[C@H](c3ccc4c(c3)OCO4)c3[nH]c4ccccc4c3C[C@@H]2C1=O [Tadalafil] ?
Result string: < 10.8 mg/mL

* * *

Experiment: Solubility of tadalafil API in various solvents
Assay type: physicochemical
Conditions: organic solvent or mixture, thermodynamic from solid; Tetrahydrofuran; 25° C. and 60° C.
RECORDED_METRIC: solubility

Query string: What value of measured solubility is listed for CN1CC(=O)N2[C@H](c3ccc4c(c3)OCO4)c3[nH]c4ccccc4c3C[C@@H]2C1=O ?
Result string: 23.8 to 47.6 mg/mL

* * *

Assay: Solubility of tadalafil API in various solvents
Type: physicochemical
Conditions: organic solvent or mixture, thermodynamic from solid; Acetone; 25° C. and 60° C.
RECORDED_METRIC: solubility

Query string: What value of measured solubility is listed for CN1CC(=O)N2[C@H](c3ccc4c(c3)OCO4)c3[nH]c4ccccc4c3C[C@@H]2C1=O [Tadalafil] ?
Result string: 10.2 to 16.9 mg/mL
